B1: EEHEE_rd4_0469 (parent)
chain: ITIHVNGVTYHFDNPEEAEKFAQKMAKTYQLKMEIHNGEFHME

variants of: B1; assay: folding stability dG (cDNA display proteolysis); higher = more stable; settings: PBS, room temperature
# folding stability dG listing for each entry below

Here are 3 variants together with their reported answers.
| Sequence record | folding stability dG |
| --- | --- |
| ITIHVNGVTYHFDNPEVAEKFAQKMAKTYQLKMEIHNGEFHME [E17V] | 1.02 kcal/mol |
| ITIHVNGVTYHFDNPEEAEKWAQKMAKTYQLKMEIHNGEFHME [F21W] | 1.2 kcal/mol |
| ITIHVNGVTYDFDNPEEAEKFAQKMAKTYQLKMEIHNGEFHME [H11D] | 0.692 kcal/mol |

Which folding stability dG is listed for ITIHVNGVTYHFDNPEEAEKFAVKMAKTYQLKMEIHNGEFHME [Q23V] ? 1.26 kcal/mol

Which folding stability dG is listed for ITIHVNGVTYHFDNPTEAEKFAQKMAKTYQLKMEIHNGEFHME [E16T] ? 1.09 kcal/mol

Which folding stability dG is listed for ITIHVNGVTYHFDNPEEAEKFAQQMAKTYQLKMEIHNGEFHME [K24Q] ? 1.2 kcal/mol

Which folding stability dG is listed for ITIMVNGVTYHFDNPEEAEKFAQKMAKTYQLKMEIHNGEFHME [H4M] ? 0.82 kcal/mol

Which folding stability dG is listed for ITIHVNTVTYHFDNPEEAEKFAQKMAKTYQLKMEIHNGEFHME [G7T] ? 0.96 kcal/mol
